Parameter Kkat: see the listing below.
- test.target: horseradish peroxidase type VI-A (Armoracia rusticana, UniProt P00433)
- Construct: purchased Sigma 6782
- Sequence (P00433 31-338 limits assumed): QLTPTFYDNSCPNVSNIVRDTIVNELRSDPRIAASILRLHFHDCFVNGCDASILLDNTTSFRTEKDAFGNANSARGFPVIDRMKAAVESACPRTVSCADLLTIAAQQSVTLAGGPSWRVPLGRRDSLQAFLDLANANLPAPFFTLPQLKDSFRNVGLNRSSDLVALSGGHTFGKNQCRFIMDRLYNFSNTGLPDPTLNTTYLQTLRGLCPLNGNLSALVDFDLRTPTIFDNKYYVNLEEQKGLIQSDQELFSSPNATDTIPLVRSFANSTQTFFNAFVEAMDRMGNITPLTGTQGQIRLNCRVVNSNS
- assay.info: Peroxidase-catalysed oxidation of substrates, initial velocity (absorbency 492 nm) vs substrate concentration, Michaelis/Menten
- Format: biochemical
- condition.label: Vmax/[E]; worked out from peroxidase of 50,000 g/mol

Reference set (2 entries):
COC(=O)c1ccc(N)c(N)c1 [methyl ester, 3,4-diaminobenzoic acid methyl ester]	2.2 * 10^8 1*mol^−1*min^−1
Nc1ccc(C(=O)O)cc1N [3,4-DABA, 3,4-diamino benzoic acid]	2.0 * 10^8 1*mol^−1*min^−1

What the record says about Nc1ccccc1N [OPD, o-phenylendiamine] : Kkat is 1.6 * 10^8 1*mol^−1*min^−1

Value of Kkat reported for the molecule CCOC(=O)c1ccc(N)c(N)c1 [ethyl ester, 3,4-diamino benzoic acid ethyl ester] is 2.7 * 10^8 1*mol^−1*min^−1

Kkat reading for CC(C)OC(=O)c1ccc(N)c(N)c1 [isopropyl ester, 3,4-diamino benzoic acid isopropyl ester] : 2.2 * 10^8 1*mol^−1*min^−1
